Recorded values, source patent US8765779B2.

- test-target: human 5-HT6 receptor (Homo sapiens)
- Construct: host or cells: CHO-K1 cells, stably transfected; membranes prepared in house
- protocol-details: Human 5-HT6 Receptor Binding Assay ([3H]LSD displacement, scintillation beads)
- stated-conditions: membranes of CHO-K1 cells with recombinant human 5-HT6, 4 nM [3H]LSD; Table 1, class symbols; read-out: h5-HT6 (Ki)
property: Ki

Below, each entry is followed by its recorded Ki result.
compound | test-target | Ki
COCC1(C)NCCc2c1oc1cc(S(=O)(=O)c3cccc(F)c3)ccc21 (stereo not drawn) [Example 634] | human 5-HT6 receptor (Homo sapiens) | < 500 nM
NC(=O)COc1cccc(S(=O)(=O)c2ccc3c(c2)OC2CNCCC32)c1 (stereo not drawn) [Example 563] | human 5-HT6 receptor (Homo sapiens) | > 1000 nM

Entry CC12CCNCC1Oc1cc(S(=O)(=O)c3ncccn3)ccc12 (racemic) [Example 9] under human 5-HT6 receptor (Homo sapiens) had Ki of > 1000 nM

====

- test-target: human 5-HT6 receptor (Homo sapiens)
- Construct: host or cells: CHO-K1 cells, stably transfected; membranes prepared in house
- protocol-details: Human 5-HT6 Receptor Binding Assay ([3H]LSD displacement, scintillation beads)
- stated-conditions: membranes of CHO-K1 cells with recombinant human 5-HT6, 4 nM [3H]LSD; Table 1, class symbols; read-out: h5-HT6 (Ki)
pKi: −log10 of the molar value.
property: pKi

Below, each entry is followed by its recorded pKi result.
molecule | value-measured
COc1ccc(OC)c(S(=O)(=O)Oc2ccc3c(c2)C2CCNCC2O3)c1 (stereo not shown) | > 6.30
O=S(=O)(c1cccc(F)c1)c1ccc2c(c1)C1CCNCC1O2 (stereo not shown) | 6.00 to 6.30
COc1cccc(S(=O)(=O)Oc2ccc3c(c2)C2CCNCC2O3)c1 (stereo not shown) | 6.00 to 6.30

Now for the molecule whose pKi we want.
pKi recorded for this molecule, COCC1(C)NCCc2c1oc1cc(S(=O)(=O)c3cccc(F)c3)ccc21 (stereo not shown) [Example 633] , is > 6.30

====

- test-target: human 5-HT6 receptor (Homo sapiens, UniProt P50406)
- Construct: host or cells: CHO-K1 cells, stably transfected; membranes prepared in house
- Sequence (P50406 whole entry): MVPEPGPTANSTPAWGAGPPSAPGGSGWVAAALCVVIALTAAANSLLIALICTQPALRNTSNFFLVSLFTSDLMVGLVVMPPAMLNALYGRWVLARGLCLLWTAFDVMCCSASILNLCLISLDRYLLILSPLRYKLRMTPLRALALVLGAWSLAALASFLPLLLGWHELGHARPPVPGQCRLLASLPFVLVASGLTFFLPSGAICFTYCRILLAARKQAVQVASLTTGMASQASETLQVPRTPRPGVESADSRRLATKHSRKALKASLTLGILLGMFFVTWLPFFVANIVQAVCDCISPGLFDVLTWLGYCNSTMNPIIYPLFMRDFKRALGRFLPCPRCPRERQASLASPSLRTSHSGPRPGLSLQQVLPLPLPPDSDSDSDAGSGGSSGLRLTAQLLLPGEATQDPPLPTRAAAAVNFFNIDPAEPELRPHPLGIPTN
- protocol-details: Human 5-HT6 Receptor Binding Assay ([3H]LSD displacement, scintillation beads)
- stated-conditions: membranes of CHO-K1 cells with recombinant human 5-HT6, 4 nM [3H]LSD; Table 1, class symbols; read-out: h5-HT6 (Ki)
pKi: −log10 of the molar value.
The molecules listed here are annotated with their pKi.

Below, each entry is followed by its recorded pKi result.
molecule | property | value-measured
CN(C)C(=O)c1c(F)cccc1S(=O)(=O)c1ccc2c3c(oc2c1)CNCC3 | pKi | < 6.00
CC(C)Oc1cccc(S(=O)(=O)c2ccc3c(c2)OC2CNCCC32)c1F (stereo not drawn) [Example 483] | pKi | > 6.30

Now for the molecule whose pKi we want.
pKi recorded for this molecule, O=S(=O)(c1ccc2oc3c(c2c1)CCNC3)c1cc(F)ccc1F , is > 6.30

====

- test-target: human 5-HT6 receptor (Homo sapiens, UniProt P50406)
- Construct: host or cells: CHO-K1 cells, stably transfected; membranes prepared in house
- protocol-details: Human 5-HT6 Receptor Binding Assay ([3H]LSD displacement, scintillation beads)
- stated-conditions: membranes of CHO-K1 cells with recombinant human 5-HT6, 4 nM [3H]LSD; Table 1, class symbols; read-out: h5-HT6 (Ki)
The molecules listed here are annotated with their Ki.

Below, each entry is followed by its recorded Ki result.
molecule | Ki
O=S(=O)(Oc1ccc2c(c1)OC1CNCCC21)c1c(Cl)nc2sccn12 (stereo not drawn) [Example 638] | < 500 nM
N#Cc1ccc(S(=O)(=O)c2ccc3oc4c(c3c2)CCNC4)cc1 [Example 271] | > 1000 nM

Now for the molecule whose Ki we want.
Ki recorded for this molecule, Cn1cnc(COc2cccc(S(=O)(=O)c3ccc4c(c3)OC3CNCCC43)c2)n1 (stereo not drawn) [Example 560] , is > 1000 nM
